study system: recombinant human KLK5 (human) (UniProt Q9Y337)
Sequence (Q9Y337 67-293): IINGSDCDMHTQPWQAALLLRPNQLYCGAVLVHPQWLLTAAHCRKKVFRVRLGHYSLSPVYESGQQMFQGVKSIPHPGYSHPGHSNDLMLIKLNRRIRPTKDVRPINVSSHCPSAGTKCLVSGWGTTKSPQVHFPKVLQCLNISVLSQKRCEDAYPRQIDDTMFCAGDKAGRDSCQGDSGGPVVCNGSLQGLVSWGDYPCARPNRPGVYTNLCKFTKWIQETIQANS
experimental details: array SPR imaging (IBIS MX96), antibody amine-coupled, human KLK5 injected 0-300 nM, 25 C
Decide using koff alone. Strictly below 0.0004 s⁻¹: true (1). Equal to or above 0.0004 s⁻¹: false (0).

Look over these answered cases.
binder	qualitative label
2-3F4 (antibody, V domains shown) VH: QSVEESRGGLIKPTDTLTLTCTASGFSLSNYGVSWVRQAPGNGLEYIGFIGYGGSTYYASWAKSRSTITRNTNLNTVTLQMTSLTAADTATYFCARLCGVDCADALDSWGPGTLVTVSS VL: AYYMTQTPASVEVAVGGTVTIKCQASEDIGSYCSWYQQKPGQPPKLLIYDASDLASGVPSRFKGSGSGTDFTLTISGVQCDDAATYYCQQDYTGNNVDNTFGGGSEVVVK	true (1)
2B11 (antibody, V domains shown) VH: QSVKESEGGLFKPTDTLTLTCTVSGFSLINYGVSWVRQAPGKGLEWIGYIGSAGSTYYATWAKSRATITRNTNLNTVTLKMTSLTAADTATYFCARAAYSAGSADAEDIWGPGTLVTVSS VL: AYYMTQTPASVEAAVGGTVTIKCQASQSISNYVAWYQQKPGQPPKLLIYRASTLASGVSSRFSGSGSGTEFTLTISDLECADAATYYCHQGYSSSNVDNIFGGGTEVVVK	false (0)

Problem: For this binder, is koff lower than 0.0004 s⁻¹? 10H3 (antibody, V domains shown) VH: QSVKESEGGLIKPTDTLTLTCTVSGFSLSTFAINWVRQAPGNGLEWIGAIGRGGSAYYASWAKSRSTITKNTNLNTVTLKMTRPTAADTATYFCARENAGSGWGELDIWGPGTLVTVSS VL: AYEMTQTPASVEVAVGGTVTINCQASESISSDLAWYQQKPGQRPKLLIYAASTLASGVPSRFKGSGSGTEFTLSISGVQCADAATYYCQQGYTWNNVDNVFGGGTEVVVK
Solution: false (0)

Where do these numbers come from? They come from patent US20200040103A1.
